Recorded values, source PubChem BioAssay (NCI).

Test system: MOLT-4 leukemia
assay-method-text: NCI-60 one-dose screen, 48 h
recorded-conditions: 10 µM unless noted
The panel holds about 83,000 compounds, 20% with a hit somewhere; the sample as a whole holds those more often. Active and inactive are the calls of the source. The calls were made as follows: active = growth percent below 10; inactive = the rest.
Outcome codes: active, inactive

compound	cat
COc1ccc(-c2nn(-c3ccccc3)cc2/C=C/C(=O)NNC(=O)Nc2ccc(C)cc2)cc1	inactive
CCN1CCN(c2cc(C)nc(N(CCNc3ccnc4cc(Cl)ccc34)Cc3ccc4c(c3)OCO4)n2)CC1	active
COc1cc(C(=O)c2c(-c3ccccc3)oc3c(OC)cccc23)cc(OC)c1OC	inactive
CN(C)c1ccc(-c2ccc3c(c2)c(-c2ccccc2)nc(=O)n3C)cn1	inactive
Cc1[nH]c(C2CC(c3ccc(C(F)(F)F)c(F)c3)=NN2c2ccccc2)c(C)c1C(=O)NCC(F)(F)F (stereo not given)	inactive
CCN1C2CCC1/C(=C\c1ccc(F)cc1)C(=O)/C2=C/c1ccc(F)cc1	inactive
Nc1ccc(-c2csc(-n3[nH]c(=O)ccc3=O)n2)cc1	inactive
CC(C)=CCNc1ncnc2c1ncn2C1OC(CO)C(O)C1O (stereo not given)	active
Cc1cccc[n+]1C1c2ccccc2-c2ccccc21	inactive
CS(=O)(=O)Nc1cc(-c2ccc3ncc(C#N)c(Nc4ccc(F)c(Cl)c4)c3c2)cnc1Cl	active
